# System name: ROR1 (antigen of the KD determination and of the Octet dissociation measurement) (UniProt Q01973 30-403, limits assumed)
# Sequence (Q01973 30-403 limits assumed): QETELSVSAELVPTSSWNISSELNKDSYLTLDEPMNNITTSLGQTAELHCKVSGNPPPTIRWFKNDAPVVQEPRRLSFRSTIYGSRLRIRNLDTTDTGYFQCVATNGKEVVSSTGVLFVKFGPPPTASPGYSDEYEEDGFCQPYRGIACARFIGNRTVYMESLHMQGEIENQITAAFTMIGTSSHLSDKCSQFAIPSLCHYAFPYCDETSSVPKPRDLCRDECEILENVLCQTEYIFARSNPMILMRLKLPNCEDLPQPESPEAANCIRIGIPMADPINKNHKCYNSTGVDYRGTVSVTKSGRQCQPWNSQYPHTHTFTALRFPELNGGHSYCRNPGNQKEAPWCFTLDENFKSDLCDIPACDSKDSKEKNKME
# Experimental details: Octet, antigen form not stated
Assay readout: koff (s⁻¹)
The response must be a number in s⁻¹ with no trailing unit.

[[record]]
binder = "PR002571 (antibody, human IgG1, kappa, V domains shown, PR001356 variant: VH G55A; hIgG1; also called anti-ROR1 1015M2-E6(H: G55A) hIgG1) VH: QVQLVESGGGVVQPGRSLRLSCAASGFTFSSYGMHWVRQAPGKGLEWVAVAWYDAVSEDYADSVKGRFTISRDNAKNTLYLQMNSLRAEDTAVYYCAREQARSFDLWGRGTLVTVSS VL: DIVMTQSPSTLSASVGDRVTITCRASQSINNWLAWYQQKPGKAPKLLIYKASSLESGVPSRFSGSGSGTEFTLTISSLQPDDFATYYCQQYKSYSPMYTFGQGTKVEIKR"
assay_readout = "koff"
obs_value = 0.000113


Let's switch to this binder now.
According to the records, this binder PR002587 (antibody, human IgG1, kappa, V domains shown, PR001369 variant: VH G55A, VL S93A; hIgG1; also called anti-ROR1 1015M3-H10(H: G55A; L: S93A) hIgG1) VH: QVQLVESGGGVVQPGRSLRLSCAASGFTFSNYGIHWVRQAPGKGLEWVAIMWYDASNTDYADSVKGRFTISRDTSKNTLFLQMNSLRAEDTAVYYCAREQARSFDLWGRGTLVTVSS VL: DIVMTQSPSTLSASVGDRVTITCRASQTINNWLAWYQQKPGKAPKLLIYKASSLESGVPSRFSGSGSGTEFTLTISSLQPDDFATYYCQQYNAYSPMYTFGQGTKVEIKR displays koff of 0.000394

Values compiled from patent US20240010721A1.
